- assay system: Human Polymorphonuclear Leukocyte Elastase (Homo sapiens, UniProt P08246)
- Sequence (P08246 30-267): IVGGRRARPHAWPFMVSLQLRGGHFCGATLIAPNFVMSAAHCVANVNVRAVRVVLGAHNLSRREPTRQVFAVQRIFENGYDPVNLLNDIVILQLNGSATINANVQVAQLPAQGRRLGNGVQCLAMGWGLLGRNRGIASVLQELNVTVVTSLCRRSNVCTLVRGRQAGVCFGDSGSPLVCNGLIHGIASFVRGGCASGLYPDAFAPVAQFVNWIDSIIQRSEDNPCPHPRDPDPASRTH
- assay overview: Inhibition of human polymorphonuclear leukocyte elastase via hydrolysis of Boc-AAPAN or Boc-AAPVN
- Format: biochemical
- conditions: pH 7.5, Table III; second order rate constant for inactivation of the enzyme; read-out: Kobs /[I]
Documented kinact/KI across a set of compounds
measurement label: kinact/KI (M⁻¹ s⁻¹)

INSERT INTO measurements (compound, measurement_label, reported) VALUES
  ('CCC[C@@H](NC(=O)N1C(=O)C(CC)(CC)[C@@H]1Oc1ccc(CN(CC)CCOC)c(C)c1)c1ccc(C)cc1', 'kinact/KI', 450000),
  ('CCC[C@@H](NC(=O)N1C(=O)C(CC)(CC)[C@@H]1Oc1ccc(C(C)N(C)CCOC)cc1)c1ccc2c(c1)OCO2 (stereo partly shown)', 'kinact/KI', '1.3e+06'),
  ('CCC[C@@H](NC(=O)N1C(=O)C(CC)(CC)[C@@H]1Oc1ccc(CN(C)CCOC)c(C)c1)c1ccc(C)cc1', 'kinact/KI', 540000),
  ('CCC[C@@H](NC(=O)N1C(=O)C(CC)(CC)[C@@H]1Oc1ccc(CN(C)CCOC)cc1)c1ccc(OC)cc1', 'kinact/KI', 900000),
  ('CCC[C@@H](NC(=O)N1C(=O)C(CC)(CC)[C@@H]1Oc1ccc(C(COC)N(C)CC)cc1)c1ccc2c(c1)OCO2 (mixture of isomers)', 'kinact/KI', '1.65e+06'),
  ('CCC[C@@H](NC(=O)N1C(=O)C(CC)(CC)[C@@H]1Oc1ccc(CN2CCN(C(=O)N(C)C)CC2)cc1)c1ccc2c(c1)OCO2', 'kinact/KI', '4e+06'),
  ('CCC[C@@H](NC(=O)N1C(=O)C(CC)(CC)[C@@H]1Oc1ccc(CNC2CC2)cc1)c1ccc2c(c1)OCO2', 'kinact/KI', '1.6e+06');
